- assayed-target: T1, IFF05588
- T1 chain: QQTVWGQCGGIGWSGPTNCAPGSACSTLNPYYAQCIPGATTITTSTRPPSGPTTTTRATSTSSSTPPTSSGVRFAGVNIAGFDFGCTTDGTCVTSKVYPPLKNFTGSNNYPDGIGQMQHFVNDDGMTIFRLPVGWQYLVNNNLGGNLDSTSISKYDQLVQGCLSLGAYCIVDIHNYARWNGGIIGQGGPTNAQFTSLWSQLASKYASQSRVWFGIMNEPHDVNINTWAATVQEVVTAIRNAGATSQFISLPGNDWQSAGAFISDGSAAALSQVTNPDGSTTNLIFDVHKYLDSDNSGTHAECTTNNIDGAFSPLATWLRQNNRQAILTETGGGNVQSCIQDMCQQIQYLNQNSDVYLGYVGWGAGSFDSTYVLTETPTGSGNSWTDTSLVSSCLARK
Kindly state Relative late peak area (centered, scaled, averaged over 5, 10 and 15 min) for each of the entries shown.
Answers are plain numbers.

Fill in Relative late peak area (centered, scaled, averaged over 5, 10 and 15 min) for each of the 2 proteins listed.
1. IFF21342 (protein) NLNKPVITPNFPGNGLASLGQGLMDHLAPTHSTWDDWGAGWIPADCKSMVQGAGFSPNDIIPFNIHYDDCAQSWTFCRHKNSPLSEIQILDIFGRLPVRMRQFVRHLVFVPGNKSAGSNGDNVLMVGDVDVTVFAHEIGHSLDSHAFDPSYGVPFSTGNVWVSNYNLDSAVPDPYAQSSQQENFAQETVVSLYDKVVPGGIGTIQPNWQAIFHQYATLEGYIGNVIIPGGTCTHRLTDSPPVTMSGSKKSRRALGPKPKVSLSPKVKEIEAIPMESSITMTSFDEHGRPNGTYVINL
2. IFF21379 (protein) QLDKPALTSNLDYLLEGNTNNLPRNGGPYWGKWADGLMPADCKSIAESQGLNPTDFEVWDIFYNDCQDGWSFCRHKDSSDSFETLVETFGRVPVRMRSWVRHILTIPGPNWAFNSNGNIALSGTTSSNLDVALHETAHSLDLLGAYGNGALSSMQEWLNAYNRDSHVPDEYARSNQVENVAQNTVVAIYDKVVPGGFPGIQPNYQRIQNQYTLVQAKAGNQILPGGTCDRHLENSDTVPMSGLSLAYKLDSEKSRGVWHDSAFKGTYMNIVKEFTPFNTQEFHH

A.
1: 0.12; 2: -0.02
